Where a name gives a salt, the structure may show the parent alone.

| MOLECULE | melting point |
| --- | --- |
| O=C(N1CCOCCOc2ccccc2OCCOCC1)C12CC3CC(CC(C3)C1)C2 | 111 to 113 °C |
| O=C(NC12CC3CC(CC(C3)C1)C2)C12CC3CC(CC(C3)C1)C2 [Compound 2, N-(1-adamantyl)adamantane-1-carboxamide] | 255 to 257 °C |
| NCCCCCC(=O)N1CCOCCOCCN(C(=O)CCCCCN)CCOCC1 (as salt: hydrochloride) | 114 to 118 °C |
| O=C(CC12CC3CC(CC(C3)C1)C2)N1CCOCCOCCN(C(=O)CC23CC4CC(CC(C4)C2)C3)CCOCC1 | 72 to 76 °C |

* * *

System: human neutrophils
Assay: Ca2+ mobilization assay, direct effect of compounds on [Ca2+]i
Format: cell-based
Settings: Neutrophil; reciprocal of EC50 in human neutrophils; inactive compounds assigned zero; read-out: 1/[EC50] (converted)
Overview of reported EC50 across a group of molecules:

| LINE_NOTATION | EC50 (µM) |
| --- | --- |
| O=C(N1CCOCCOCCOCCN(C(=O)C23CC4CC(CC(C4)C2)C3)CCOCC1)C12CC3CC(CC(C3)C1)C2 | 9.5 |
| O=C(CC12CC3CC(CC(C3)C1)C2)N1CCOCCOc2ccccc2OCCOCC1 | 15.6 |
| O=C(CC12CC3CC(CC(C3)C1)C2)N1CCOCCOCCN(C(=O)CC23CC4CC(CC(C4)C2)C3)CCOCCOCC1 | 15.9 |

* * *

System: human neutrophils
Assay: fMLF-induced neutrophil chemotaxis (ChemoTx chambers)
Type: cell-based
Settings: 1 h, 1 nM fMLF, 60 min migration
Overview of reported IC50 across a group of molecules:

| MOLECULE | IC50, µM |
| --- | --- |
| O=C(N1CCOCCOCCN(C(=O)C23CC4CC(CC(C4)C2)C3)CCOCCOCC1)C12CC3CC(CC(C3)C1)C2 | 5.3 |
| O=C(CC12CC3CC(CC(C3)C1)C2)N1CCOCCOCCN(C(=O)CC23CC4CC(CC(C4)C2)C3)CCOCC1 | 5.7 |
| O=C(N1CCOCCN(C(=O)C23CC4CC(CC(C4)C2)C3)CCOCC1)C12CC3CC(CC(C3)C1)C2 | 15.7 |
| O=C(N1CCOCCOCCN(C(=O)C23CC4CC(CC(C4)C2)C3)CCOCC1)C12CC3CC(CC(C3)C1)C2 | 5.8 |
| O=C(CC12CC3CC(CC(C3)C1)C2)N1CCOCCOCCOCCOCC1 [Compound 8, N-[2-(1-adamantyl)acetyl]aza-15-crown-5] | 13.2 |
| O=C(N1CCOCCOCCOCCN(C(=O)C23CC4CC(CC(C4)C2)C3)CCOCC1)C12CC3CC(CC(C3)C1)C2 | 6.1 |
| O=C(CC12CC3CC(CC(C3)C1)C2)N1CCOCCOc2ccccc2OCCOCC1 | 12.8 |
| O=C(CC12CC3CC(CC(C3)C1)C2)N1CCOCCOCCN(C(=O)CC23CC4CC(CC(C4)C2)C3)CCOCCOCC1 | 5.2 |

* * *

Tested on: human neutrophils
Experiment: Ca2+ mobilization assay, direct effect of compounds on [Ca2+]i
Assay type: cell-based
Conditions: Neutrophil; reciprocal of EC50 in human neutrophils; inactive compounds assigned zero; read-out: 1/[EC50] (converted)
Note to self: EC50 under 10 µM means y, ties and anything higher get n.

| COMPOUND | ASSIGNED_CLASS |
| --- | --- |
| O=C(N1CCOCCOc2ccccc2OCCOCC1)C12CC3CC(CC(C3)C1)C2 | y |
| O=C(N1CCOCCN(C(=O)C23CC4CC(CC(C4)C2)C3)CCOCC1)C12CC3CC(CC(C3)C1)C2 | n |
| O=C(N1CCOCCOCCN(C(=O)C23CC4CC(CC(C4)C2)C3)CCOCC1)C12CC3CC(CC(C3)C1)C2 | y |
| O=C(CC12CC3CC(CC(C3)C1)C2)N1CCOCCOCCOCCOCC1 [Compound 8, N-[2-(1-adamantyl)acetyl]aza-15-crown-5] | n |
| O=C(CC12CC3CC(CC(C3)C1)C2)N1CCOCCOCCN(C(=O)CC23CC4CC(CC(C4)C2)C3)CCOCC1 | y |
| C1COCCN(CCC23CC4CC(CC(C4)C2)C3)CCOCCOCCN(CCC23CC4CC(CC(C4)C2)C3)CCO1 | n |
| O=C(N1CCOCCOCCN(C(=O)C23CC4CC(CC(C4)C2)C3)CCOCCOCC1)C12CC3CC(CC(C3)C1)C2 | n |
